- Tested on: BV2 microglia cells
- Method: BV2 cell NO assay (LPS-induced NO production, Griess reagent)
- Type: cell-based
- Reported Conditions: Mus musculus, BV-2, LPS 1 μg/ml, 24 hours
Quantity Name: IC50 (µM)

Sample answers from the record:
IC50 reading for CCOc1ccc(C2COc3c(ccc4c3CCC(C)(C)O4)C2)c(O)c1 (stereo not drawn) [Compound 15] : 2.7

IC50 reading for CCc1ccc(C2COc3c(ccc4c3CCC(C)(C)O4)C2)c(O)c1 (stereo not drawn) [Compound 4] : 3.7

IC50 reading for CCCCOc1ccc(C2COc3c(ccc4c3CCC(C)(C)O4)C2)c(O)c1 (stereo not drawn) [Compound 18] : 2.8

I = CCCc1ccc(C2COc3c(ccc4c3CCC(C)(C)O4)C2)c(O)c1 (stereo not drawn) [Compound 5]
II = CC1(C)C=Cc2c(ccc3c2OC[C@@H](c2ccc(O)cc2O)C3)O1 [Glabridin, glabridin, reference compound]
III = CCCOc1ccc(C2COc3c(ccc4c3CCC(C)(C)O4)C2)c(O)c1 (stereo not drawn) [Compound 16]
Q) // smallest IC50 at index 0, largest at the end Returns: the labels listed in the requested order.
A) III, I, II

* * *

- Method: Chemical stability in 1% HCl in MeOH (HPLC)
- Type: physicochemical
- Reported Conditions: 24 h
Quantity Name: concentration of compound remaining (%)

concentration of compound remaining reading for CCCc1ccc(C2COc3c(ccc4c3CCC(C)(C)O4)C2)c(O)c1 (stereo not shown) : 102

concentration of compound remaining reading for CC1(C)C=Cc2c(ccc3c2OC[C@@H](c2ccc(O)cc2O)C3)O1 [Glabridin, glabridin, reference compound] : 94

concentration of compound remaining reading for CCc1ccc(C2COc3c(ccc4c3CCC(C)(C)O4)C2)c(O)c1 (stereo not shown) : 101

concentration of compound remaining reading for CCOc1ccc(C2COc3c(ccc4c3CCC(C)(C)O4)C2)c(O)c1 (stereo not shown) : 100

* * *

- Test system: DIO mice
- Method: Organ weights and blood biochemistry of DIO mice after 28 days of administration
- Format: in vivo, C57BL/6 mice
- Reported Conditions: 150 mg/kg, experiment without parenthesis
Quantity Name: AST (U/L)
Use U/L as the unit, but write only the number.

AST (U/L) reading for COc1ccc(C2COc3c(ccc4c3CCC(C)(C)O4)C2)c(O)c1 (centres unmarked) [Compound 14] : 131

AST (U/L) reading for CC1(C)C=Cc2c(ccc3c2OC[C@@H](c2ccc(O)cc2O)C3)O1 [Glabridin, glabridin, reference compound] : 90

AST (U/L) reading for CCOc1ccc(C2COc3c(ccc4c3CCC(C)(C)O4)C2)c(O)c1 (centres unmarked) [Compound 15] : 143

AST (U/L) reading for CC1(C)CCc2c(ccc3c2OC[C@@H](c2ccc(O)cc2O)C3)O1 [Compound 1, 3″,4″-dihydroglabridin] : 93

Further cases:
AST (U/L) reading for COCOc1ccc(C2COc3c(ccc4c3CCC(C)(C)O4)C2)c(O)c1 (centres unmarked) [Compound 21] : 104

* * *

- Method: Chemical stability in 1% NaOH in MeOH (HPLC)
- Type: physicochemical
- Reported Conditions: 24 h
Quantity Name: concentration of compound remaining (%)

P = CCCc1ccc(C2COc3c(ccc4c3CCC(C)(C)O4)C2)c(O)c1 (stereo not shown) [Compound 5]
Q = CC1(C)C=Cc2c(ccc3c2OC[C@@H](c2ccc(O)cc2O)C3)O1 [Glabridin, glabridin, reference compound]
Q) Consider P and Q . Which of these has its concentration of compound remaining at a higher number? Could you answer with the label of the item you picked?
A) P
(P: 102%, Q: 38%)
